# target-under-test: CK1δ (Homo sapiens, UniProt P48730)
# Construct: gene CSNK1D
# Sequence (P48730 whole entry): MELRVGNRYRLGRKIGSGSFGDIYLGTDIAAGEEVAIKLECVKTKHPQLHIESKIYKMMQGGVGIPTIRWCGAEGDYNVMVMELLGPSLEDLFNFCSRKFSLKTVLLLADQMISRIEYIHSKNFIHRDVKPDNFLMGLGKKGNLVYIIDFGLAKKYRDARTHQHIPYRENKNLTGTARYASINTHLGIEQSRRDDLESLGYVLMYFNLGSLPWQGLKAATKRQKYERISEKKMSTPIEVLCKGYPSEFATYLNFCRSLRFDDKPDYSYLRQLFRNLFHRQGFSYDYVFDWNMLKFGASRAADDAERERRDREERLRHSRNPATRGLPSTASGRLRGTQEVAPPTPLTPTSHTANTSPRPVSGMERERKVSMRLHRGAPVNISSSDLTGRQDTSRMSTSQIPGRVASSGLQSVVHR
# assay-text: in vitro radiometric kinase assay ([…]-ATP, CK1 peptide substrate); CRBN-dependent CK1δ degradation in cells
# Format: biochemical
endpoint-name: pIC50
In simple prose, pIC50 is minus the logarithm base ten of a concentration in moles per litre.

Reading of pIC50 for O=C1CCC(N2C(=O)c3cccc(NCCCCCC(=O)Nc4ccc(Cn5c(SCC(=O)Nc6nc7ccc(C(F)(F)F)cc7s6)nccc5=O)cc4)c3C2=O)C(=O)N1 (stereo not shown) with CK1δ (Homo sapiens, UniProt P48730): 5.67
